experiment description: Solvolytic stability of compound was measured relative to p-hydroxyphenethyl bromide
Assay type: functional, Rattus norvegicus
# reported 1/krel; entries follow
The reply should be a number, written without any unit.

CC[C@H](c1ccc(O)cc1)[C@@H](CI)c1ccc(O)cc1
0.71
C[C@]12CC[C@@H]3c4ccc(O)cc4CC[C@H]3[C@@H]1C[C@@H](Br)[C@@H]2O
1276
C[C@]12CC[C@@H]3c4ccc(O)cc4CC[C@H]3[C@@H]1C[C@@H](CBr)C2O (some centres undefined)
451

Lab book: 1/krel of Oc1ccc(CCBr)cc1 noted as 1
